# Tested on: XIP peptide (Xip251-270)
# PROTOCOL TEXT: small-molecule binders of XIP peptide, primary screen, biochemical, small-molecule microarray, fluorescence 635/667 nm, 0.5 µg/mL protein (AID 1183)
# PARTICULARS: small-molecule microarray binding, fluorescence 635 nm; higher = more signal
READOUT KIND: composite z-score

[N-]=[N+]=NCc1ccccc1[C@H]1OC(c2ccc(OCCCO)cc2)=N[C@@]1(Cc1ccccc1N=[N+]=[N-])C(=O)N1CCOCC1: 0.604

Data request: What value of composite z-score has been reported for the following molecule? CC(C)c1ccc(NN2C(C(O)C3=C[C@H]4C[C@@H](C3)C4(C)C)C=CC3C(=O)N(c4ccccc4)C(=O)C32)cc1 (stereo partly drawn)
Data returned: 0.464

Data request: Would you mind telling me what composite z-score value was observed for COC(=O)[C@@]1(Cc2ccc(F)cc2)[C@H]2c3cc(C(=O)N4CCCC4)n(C[C@H](O)CO)c3C[C@H]2CN1C(=O)c1ccccc1 ?
Data returned: 0.0592

Data request: Entry CCCCCCCCCCC(O)C1C=CC2C(=O)N(C)C(=O)C2N1Nc1ccccc1 (stereo not drawn) has what composite z-score?
Data returned: -1.39

----------
Recorded z-score, one value per entry.
# PROTOCOL TEXT: Plasmodium falciparum growth inhibition, primary screen, strain 3D7, DAPI fluorescence, 100 nL (AID 1184);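 further: parasites grown inside human red blood cells in medium with human serum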
# PARTICULARS: P. falciparum 3D7 growth, 3 d, higher = more signal
Could you keep your reply to the number by itself?

COCCCNC(=O)[C@@]1(CCC(=O)OC(C)(C)C)N=C(c2ccc(OCCCO)cc2)O[C@H]1c1ccccc1: -0.0488

Data request: // returns reported z-score for input [N-]=[N+]=NCc1ccccc1C[C@]1(C(=O)N2CCCCC2)COC(c2ccc(OCCCO)cc2)=N1
Data returned: -2.29

Data request: // lookup z-score for CCCC1(C(=O)OC)C=C2C(=C(C(C)C)C(=O)C2C)CN1 (centres undefined)
Data returned: 0.77

Data request: What value of z-score has been recorded for this entry: COCCOC(=O)N1C(=O)[C@@]2(c3cc(C#CCNC(N)=O)ccc31)[C@H](C(=O)Nc1nc3ccccc3s1)[C@H]1C(=O)O[C@H](c3ccccc3)[C@H](c3ccccc3)N1[C@@H]2c1ccc(O)cc1
Data returned: 0.106

Data request: Would you mind telling me what z-score value was observed for C[C@]1(C(=O)NC2CC2)c2ccccc2C(=O)N(Cc2cc(F)cc(C(F)(F)F)c2)[C@H]1c1ccc(CO)cc1 ?
Data returned: 0.0713

Data request: If you can, please state the reported z-score value of CC(C)Cc1ccc(CN2CC[C@@H](NC(=O)c3ccccc3)C2)cc1 .
Data returned: -1.68

Data request: Please report the recorded z-score for COCCOC(=O)N1C(=O)[C@@]2(c3cc(C#CCNC(N)=O)ccc31)[C@H](C(N)=O)[C@H]1C(=O)O[C@H](c3ccccc3)[C@H](c3ccccc3)N1[C@@H]2c1ccc(O)cc1 .
Data returned: 1.75

Data request: Query: z-score; subject: Cc1ccc(S[C@]2(C(=O)NC(C)C)CC(=O)N(Cc3ccccc3)[C@@H]2c2ccc(CO)cc2I)cc1
Data returned: -0.158

Data request: Given O=C1O[C@H](c2ccccc2)[C@H](c2ccccc2)N2[C@H]1[C@@H](C(=O)Nc1nc3ccccc3s1)[C@]1(C(=O)Nc3ccccc31)[C@H]2c1ccccc1OCCO , state its recorded z-score.
Data returned: -1.08

----------
# PROTOCOL TEXT: small-molecule microarray binders of probe aEGFR, primary screen, biochemical, biotinylated probe, 635/667 nm fluorescence (AID 1097);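 further: probe is a biotinylated anti-EGFR antibody binding compounds printed on slides; score combines fluorescence near 667 nm and signal to noise of each spot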
# PARTICULARS: higher = more signal
Outcome: Yes for composite z-score of at least 0.06; No for anything lower.

Completed entries (count: 8):
C=CCOC(=O)[C@@H]1[C@H]2C(=O)O[C@H](c3ccccc3)[C@H](c3ccccc3)N2[C@H](c2ccc(OCCOC(=O)[C@H]3C[C@H]4C(=O)N[C@@H](CCCCN(C)C)C(=O)N4[C@H]3c3cccc(OCCO)c3)cc2)[C@@]12C(=O)Nc1ccccc12: No
OCCCc1cc[n+](Cc2cc3c(cc2Br)OCO3)cc1: No
CN(C)CCCC[C@@H]1NC(=O)[C@H]2C[C@@H](C(=O)NCCCCCCNC(=O)CS)[C@@H](c3cccc(OCCO)c3)N2C1=O: No
O=C1NC(=O)C2C1C=CC(C(O)C(c1ccccc1)c1ccccc1)N2Nc1ccccn1 (centres undefined): Yes
CC(C)C[C@H]1NC(=O)CNC(=O)[C@@]23C(=O)N[C@@H](Cc4ccccc4)C2[C@H](C)[C@@]2(C)O[C@H]2C3/C=C/C/C=C\CNC1=O (some centres undefined): No
COc1ccc(C(O)C2C=CC3C(=O)N(C)C(=O)C3N2Nc2ccccc2)cc1 (centres undefined): Yes
CN1C(=O)C2C(C1=O)C1C=C(CCCO)C2C(C2CC2)N1C (centres undefined): No
COCCOC(=O)N1C(=O)[C@@]2(c3cc(C#CCCO)ccc31)[C@H](c1ccc(O)cc1)N1[C@H](c3ccccc3)[C@H](c3ccccc3)OC(=O)[C@H]1[C@@H]2C(=O)NC[C@H](O)c1ccccc1: No

Data request: Please tell me: is the compound COC(=O)[C@@]1(Cc2ccc(F)cc2)[C@@H]2C(=CC(=O)[C@H]2CC(=O)C(=O)N2CCCC2)CN1C(=O)c1ccccc1 at or over 0.06 in terms of composite z-score?
Data returned: Yes

Data request: Is it the case that C=CCC(OC(C)=O)[C@@H]1[C@@H](N(Cc2ccc(-c3ccccc3)cc2)C(=O)Cc2ccc(OC)cc2)c2cc(OCCCO)ccc2N1C(=O)c1ccc2ccccc2c1 (some centres undefined) has composite z-score reaching or exceeding 0.06?
Data returned: No

Data request: Check if composite z-score >= 0.06 (inclusive). Item: COC(=O)[C@@]1(Cc2ccccc2)[C@H]2c3cc(C(=O)N(C)C)n(Cc4ccc(Cl)c(C(F)(F)F)c4)c3C[C@H]2CN1C(=O)c1ccccc1
Data returned: Yes

Data request: hey, is composite z-score for this one >= 0.06? CCCCCCCCCCC(O)C1C=CC2C(=O)N(C)C(=O)C2N1Nc1ccccc1 (centres undefined)
Data returned: No

Data request: Is it the case that C[C@H]1C2[C@H](Cc3ccccc3)NC(=O)[C@]23C(=O)N[C@@H](Cc2ccccc2)C(=O)N2CCC[C@H]2C(=O)NC/C=C/CC/C=C/C3[C@@H]2O[C@]12C (some centres undefined) has composite z-score reaching or exceeding 0.06?
Data returned: No

----------
# ASSAYED TARGET: Torsin-1A-interacting protein 1 (Homo sapiens) (UniProt Q5JTV8)
# Sequence (Q5JTV8 whole entry, looked up): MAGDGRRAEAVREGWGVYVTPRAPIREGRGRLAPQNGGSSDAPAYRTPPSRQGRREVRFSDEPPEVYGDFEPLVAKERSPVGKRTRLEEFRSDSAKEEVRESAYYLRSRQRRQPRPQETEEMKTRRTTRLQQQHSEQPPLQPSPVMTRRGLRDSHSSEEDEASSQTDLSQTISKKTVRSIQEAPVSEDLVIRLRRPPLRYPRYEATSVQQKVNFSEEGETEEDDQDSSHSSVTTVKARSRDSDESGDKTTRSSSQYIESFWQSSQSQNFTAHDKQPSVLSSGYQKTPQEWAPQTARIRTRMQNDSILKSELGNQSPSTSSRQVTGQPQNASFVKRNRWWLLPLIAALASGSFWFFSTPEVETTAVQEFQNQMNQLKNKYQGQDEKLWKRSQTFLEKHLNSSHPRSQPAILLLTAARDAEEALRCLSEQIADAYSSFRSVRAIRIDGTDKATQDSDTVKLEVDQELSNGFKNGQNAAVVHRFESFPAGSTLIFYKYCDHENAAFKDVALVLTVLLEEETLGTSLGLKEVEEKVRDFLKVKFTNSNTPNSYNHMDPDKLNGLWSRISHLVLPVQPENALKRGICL
# PROTOCOL TEXT: LAP1 binders from COS7 cell lysate, primary screen, small-molecule microarray, 635/667 nm fluorescence (AID 1116)
# PARTICULARS: COS7-hLAP1 lysate binding, 635 nm fluorescence, higher = more signal
# composite z-score binned as 1 (below 0.2), 2 (0.2 to below 0.7), 3 (0.7 or more)

CC(C)c1ccc(NN2C(C(O)C3=C[C@H]4C[C@@H](C3)C4(C)C)C=CC3C(=O)N(c4ccccc4)C(=O)C32)cc1 (some centres undefined): 3
C=C(COC)C(=O)CC[C@H](OC(C)=O)c1ccc(CO)o1: 1
O=C1N(Cc2ccccc2)c2ccccc2C[C@@]12N=C(c1ccc(OCCCO)cc1)O[C@H]2c1ccccc1: 1
O=C1NC(=O)C2C1C=CC(C(O)C(O)CO)N2Nc1ccccn1 (centres undefined): 1
COc1c(C)cc(-c2nc(-c3ccccc3)c3c(c2C)CO[Si]3(C(C)C)C(C)C)cc1C: 1
COCCOC(=O)N1C(=O)[C@@]2(c3cc(C#CCNC(N)=O)ccc31)[C@H](C(N)=O)[C@H]1C(=O)O[C@H](c3ccccc3)[C@H](c3ccccc3)N1[C@@H]2c1ccc(O)cc1: 1
O=C1c2ccccc2[C@@]2(Cc3ccccc3N(CC(F)(F)F)C2=O)[C@H](c2ccc(CO)cc2)N1Cc1ccccc1: 1
CC(C)N1C(=O)[C@@]2(Cc3ccccc31)c1ccccc1C(=O)N(Cc1ccccc1C(F)(F)F)[C@H]2c1ccc(CO)cc1: 2
O=C(O)C1=CC[C@H]2C(=O)N(c3ccccc3)C(=O)[C@@H]12: 3
COC(=O)c1c2oc(c1C(=O)OC)C(=O)N[C@H](Cc1ccccc1)Cn1cc(nn1)C1(CCCCC1)NC(=O)N[C@H](CO)CC2: 2

Data request: Category lookup for the compound CCOC(=O)C1=CC[C@@H](c2ccccc2)N(S(=O)(=O)c2ccc(C)cc2)[C@@H]1C#N
Data returned: 2

Data request: Bin this entry: COc1ccc(CCNC(=O)[C@@]2(c3ccc([N+](=O)[O-])cc3)CC(=O)N(C3CCCCC3)[C@@H]2c2ccc(CO)cc2I)cc1
Data returned: 3

Data request: Sort into band: Cc1ccc(S[C@]2(C(=O)NC(C)C)CC(=O)N(Cc3ccccc3)[C@@H]2c2ccc(CO)cc2)cc1
Data returned: 1

Data request: Entry C=CCC(OC(C)=O)[C@@H]1[C@@H](N(Cc2ccc(-c3ccccc3)cc2)C(=O)Cc2ccc(OC)cc2)c2cc(OCCCO)ccc2N1C(=O)c1ccc2ccccc2c1 (some centres undefined) belongs to which category?
Data returned: 3
